Some sequences, each annotated with its measured binding signal.
Target: MBP-FoxP1dN (Mus musculus, UniProt P58462 326-579)
Sequence: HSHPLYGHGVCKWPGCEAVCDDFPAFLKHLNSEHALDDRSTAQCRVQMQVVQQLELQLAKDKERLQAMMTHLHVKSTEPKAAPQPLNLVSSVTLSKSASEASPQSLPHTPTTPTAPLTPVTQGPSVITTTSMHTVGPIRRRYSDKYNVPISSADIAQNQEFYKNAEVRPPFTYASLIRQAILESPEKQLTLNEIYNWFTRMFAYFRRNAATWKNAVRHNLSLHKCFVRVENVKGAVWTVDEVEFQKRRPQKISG
Assay: PD-seq (MBP pull-down with sequencing); 20 mM Tris-HCl pH 7.5, 100 mM NaCl, 1.5 mM MgCl2, 0.4 uM protein, 0.1 uM dsDNA library, 30 min, room temperature, amylose pull-down; high values mean tight binding
Settings: protein: recombinant; tags: His6-MBP; chain copies: 2; dsDNA, one strand shown
The full ranking holds about 16,000 sequences; the median of “rpm ratio (pull-down/input)” is about 0.94, and the highest 2% start at about 1.7. The list comes from a sample in which the highest values are over-represented; it also holds close analogues and randomly drawn sequences.
EXPERIMENTAL_ENDPOINT: binding signal

- GATGATTGTTCTCCCAGCTGATGAATTGCAGCTATCGAGTAAACAAATTTTCCTAATCTTTCTGTTCAAGCGCCATCTAC: 1.15 RPM ratio (pull-down/input)
- GATGATTGTTCTCCCAGCTGATGAATTATTTCAATCGAGTAAACAAATTTTCCTAATCTTTCTGTTCAAGCGCCATCTAC: 1.11 RPM ratio (pull-down/input)
- GATGATTGTTCTCCCAGCTGATGAATTACCCATATCGAGTAAACAAATTTTCCTAATCTTTCTGTTCAAGCGCCATCTAC: 1.07 RPM ratio (pull-down/input)
- GATGATTGTTCTCCCAGCTGATGAATTTTTGATATCGAGTAAACAAATTTTCCTAATCTTTCTGTTCAAGCGCCATCTAC: 1.17 RPM ratio (pull-down/input)
- GATGATTGTTCTCCCAGCTGATGAATTGTTTGGATCGAGTAAACAAATTTTCCTAATCTTTCTGTTCAAGCGCCATCTAC: 1.65 RPM ratio (pull-down/input)
- GATGATTGTTCTCCCAGCTGATGAATTACTGATTTCGAGTAAACAAATTTTCCTAATCTTTCTGTTCAAGCGCCATCTAC: 1.24 RPM ratio (pull-down/input)
- GATGATTGTTCTCCCAGCTGATGAATTACAAAAATCGAGTAAACAAATTTTCCTAATCTTTCTGTTCAAGCGCCATCTAC: 1.59 RPM ratio (pull-down/input)
- GATGATTGTTCTCCCAGCTGATGAATTTTACAAATCGAGTAAACAAATTTTCCTAATCTTTCTGTTCAAGCGCCATCTAC: 1.1 RPM ratio (pull-down/input)
- GATGATTGTTCTCCCAGCTGATGAATTGGGTATCTCGAGTAAACAAATTTTCCTAATCTTTCTGTTCAAGCGCCATCTAC: 0.935 RPM ratio (pull-down/input)
- GATGATTGTTCTCCCAGCTGATGAATTGATTGTTTCGAGTAAACAAATTTTCCTAATCTTTCTGTTCAAGCGCCATCTAC: 1.61 RPM ratio (pull-down/input)
- GATGATTGTTCTCCCAGCTGATGAATTGGTCGCGTCGAGTAAACAAATTTTCCTAATCTTTCTGTTCAAGCGCCATCTAC: 1.03 RPM ratio (pull-down/input)
- GATGATTGTTCTCCCAGCTGATGAATTGCATCTATCGAGTAAACAAATTTTCCTAATCTTTCTGTTCAAGCGCCATCTAC: 1.75 RPM ratio (pull-down/input)
- GATGATTGTTCTCCCAGCTGATGAATTACATAAATCGAGTAAACAAATTTTCCTAATCTTTCTGTTCAAGCGCCATCTAC: 1.64 RPM ratio (pull-down/input)
- GATGATTGTTCTCCCAGCTGATGAATTCTATTTATCGAGTAAACAAATTTTCCTAATCTTTCTGTTCAAGCGCCATCTAC: 2.58 RPM ratio (pull-down/input)
- GATGATTGTTCTCCCAGCTGATGAATTTCTTGCATCGAGTAAACAAATTTTCCTAATCTTTCTGTTCAAGCGCCATCTAC: 1.27 RPM ratio (pull-down/input)
- GATGATTGTTCTCCCAGCTGATGAATTTTACATATCGAGTAAACAAATTTTCCTAATCTTTCTGTTCAAGCGCCATCTAC: 0.97 RPM ratio (pull-down/input)
- GATGATTGTTCTCCCAGCTGATGAATTTTAGTAATCGAGTAAACAAATTTTCCTAATCTTTCTGTTCAAGCGCCATCTAC: 1.75 RPM ratio (pull-down/input)
- GATGATTGTTCTCCCAGCTGATGAATTTCCTGTTTCGAGTAAACAAATTTTCCTAATCTTTCTGTTCAAGCGCCATCTAC: 0.949 RPM ratio (pull-down/input)
- GATGATTGTTCTCCCAGCTGATGAATTTCTGTTTTCGAGTAAACAAATTTTCCTAATCTTTCTGTTCAAGCGCCATCTAC: 2.32 RPM ratio (pull-down/input)
- GATGATTGTTCTCCCAGCTGATGAATTTACATAATCGAGTAAACAAATTTTCCTAATCTTTCTGTTCAAGCGCCATCTAC: 1.76 RPM ratio (pull-down/input)
- GATGATTGTTCTCCCAGCTGATGAATTACATGGTTCGAGTAAACAAATTTTCCTAATCTTTCTGTTCAAGCGCCATCTAC: 1.12 RPM ratio (pull-down/input)
